- System: Hepatitis C virus
- protocolText: Antiviral activity against HCV 1a infected in human Huh-7 cells after 48hrs by luciferase assay
- Format: functional, organism-based, Hepacivirus hominis
- conditionSet: subtype 1a, Huh-7, 48 h
propertyLabel: EC50 (µM)

(1) COc1cnc(O[C@@H]2CC3C(=O)N[C@]4(C(=O)NS(=O)(=O)C5CC5)C[C@H]4/C=C\CCCCC[C@H](NC(=O)NCc4ccc5c(c4)B(O)OC5)C(=O)N3C2)c2cc(Cl)ccc12 (some centres not stated)
(2) COc1ccc2c(O[C@@H]3C[C@H]4C(=O)N[C@]5(C(=O)NS(=O)(=O)C6CC6)C[C@H]5/C=C\CCCCN(C)C(=O)[C@@H]4C3)cc(-c3nc(C(C)C)cs3)nc2c1C [SIMEPREVIR]
(3) O=C(N[C@H]1CCCCC/C=C\[C@@H]2C[C@@]2(C(=O)NS(=O)(=O)C2CC2)NC(=O)C2C[C@@H](OC(=O)N3Cc4cccc(F)c4C3)CN2C1=O)Oc1ccc2c(c1)B(O)OC2 (some centres not stated)
(4) COc1ccc2c(O[C@@H]3CC4C(=O)N[C@]5(C(=O)NS(=O)(=O)C6CC6)C[C@H]5/C=C\CCCCC[C@H](NC(=O)Nc5ccc6c(c5)B(O)OC6)C(=O)N4C3)cc(-c3nc(C(C)C)cs3)nc2c1C (some centres not stated)
(5) CC(C)(C)OC(=O)N[C@H]1CCCCC/C=C\[C@@H]2C[C@@]2(C(=O)NS(=O)(=O)C2CC2)NC(=O)[C@@H]2C[C@@H](OC(=O)N3Cc4cccc(F)c4C3)CN2C1=O [DANOPREVIR]
Enquiry: Rank the listed compounds according to EC50, from the largest value downward. Answer format: list of labels, ordered as asked.
Return: 3, 1, 4, 2, 5
(3: 0.661 µM, 1: 0.0501 µM, 4: 0.0125 µM, 2: 0.0023 µM, 5: 0.001 µM)

(a) COc1cnc(O[C@@H]2CC3C(=O)N[C@]4(C(=O)NS(=O)(=O)C5CC5)C[C@H]4/C=C\CCCCC[C@H](NC(=O)Nc4ccc5c(c4)B(O)OC5)C(=O)N3C2)c2cc(Cl)ccc12 (some centres not stated)
(b) CC1OB(O)c2cc(NC(=O)N[C@H]3CCCCC/C=C\[C@@H]4C[C@@]4(C(=O)NS(=O)(=O)C4CC4)NC(=O)C4C[C@@H](OC(=O)N5Cc6cccc(F)c6C5)CN4C3=O)c(F)cc21 (some centres not stated)
Enquiry: Which has the higher EC50, a or b ? Pick one; state its label.
Return: a
(a: 0.0603 µM, b: 0.02 µM)

(1) COc1ccc2c(O[C@@H]3CC4C(=O)N[C@]5(C(=O)NS(=O)(=O)C6CC6)C[C@H]5/C=C\CCCCC[C@H](NC(=O)NCc5ccc6c(c5)B(O)OC6)C(=O)N4C3)cc(-c3nc(C(C)C)cs3)nc2c1C (some centres not stated)
(2) O=C(Nc1cc2c(cc1F)COB2O)N[C@H]1CCCCC/C=C\[C@@H]2C[C@@]2(C(=O)NS(=O)(=O)C2CC2)NC(=O)C2C[C@@H](OC(=O)N3Cc4cccc(F)c4C3)CN2C1=O (some centres not stated)
(3) O=C(N[C@H]1CCCCC/C=C\[C@@H]2C[C@@]2(C(=O)NS(=O)(=O)C2CC2)NC(=O)C2C[C@@H](OC(=O)N3Cc4cccc(F)c4C3)CN2C1=O)Oc1ccc2c(c1)COB2O (some centres not stated)
Enquiry: # desc sort on EC50 across 3 compounds Answer format: list of labels, ordered as asked.
Return: 3, 2, 1
